# Tested on: HT29 colon
# Method: NCI-60 one-dose screen, 48 h (100 = growth as untreated, 0 = no growth, -100 = all killed)
# Condition Notes: 10 µM unless noted
Compounds without any hit were thinned out: in the full panel of roughly 83,000, 20% have a hit.
Threshold rule: growth greater than or equal to 90% is Met; below that, Not met.

{"Compound": "Cn1cc(C(=O)C[n+]2ccccc2)c2ccccc21", "Assigned Category": "Met"}
{"Compound": "CC[C@H](C)[C@H](NC(=O)[C@H]1CCCCN1C)C(=O)N(C)[C@H](C[C@@H](OC(C)=O)c1cccc(C(=O)N[C@@H](Cc2ccccc2)C[C@H](C)C(=O)OC)n1)C(C)C", "Assigned Category": "Not met"}
{"Compound": "O=[N+]([O-])c1ccc(OCc2ccc(S(=O)(=O)F)c(Cl)c2)c(Cl)c1", "Assigned Category": "Met"}
{"Compound": "CC/C(Cc1ccccc1)=C(\\c1ccc(OCCN2CCCC2)cc1)c1ccc(OC(=O)NCc2ccccc2)cc1", "Assigned Category": "Not met"}
{"Compound": "O=C1CCCCC1CN1CCCCC1 (stereo not given)", "Assigned Category": "Not met"}

###

# Test system: HOP-92 NSCLC
# Method: NCI-60 one-dose screen, 48 h (100 = growth as untreated, 0 = no growth, -100 = all killed)
# Condition Notes: 10 µM unless noted
This is part of a sample that, as a whole, favours compounds with a hit. Of some 83,000 tested, about 20% had one in any assay.

{"Molecule": "O=C/C=C/c1ccco1", "Readout Unit": "%", "growth": 94.3}
{"Molecule": "C=C1C(=O)OC2CC3(C)OC3C3OC3C3=CC(OC3=O)C12 (configuration not stated)", "Readout Unit": "%", "growth": 9.95}
{"Molecule": "CC(=O)C(N)Cc1ccccc1 (configuration not stated)", "Readout Unit": "%", "growth": 86.3}
{"Molecule": "O=C1NC(=O)C(=C/C=C/c2ccccc2)C(=O)N1", "Readout Unit": "%", "growth": 92.8}
{"Molecule": "CN1CCC2(CC1)C(C#N)C(=O)NC(=O)C2C#N (configuration not stated)", "Readout Unit": "%", "growth": 109}
{"Molecule": "COc1ccc(N)cc1N", "Readout Unit": "%", "growth": 85.7}
{"Molecule": "NC(N)=NC(N)=Nc1ccc(Cl)cc1", "Readout Unit": "%", "growth": 89.7}

###

# System: BT-549 breast
# Method: NCI-60 one-dose screen, 48 h
# Condition Notes: 10 µM unless noted
Compounds without any hit were thinned out: in the full panel of roughly 83,000, 20% have a hit. Active and inactive are the calls of the source. The calls were made as follows: active = growth percent below 10; inactive = the rest.
Outcomes: label 1 (active), label 0 (inactive)

{"Molecule": "NC(N)=NC(N)=Nc1ccc(Cl)cc1", "Assigned Category": "label 0"}
{"Molecule": "O=C(CBr)OCCOC(=O)CBr", "Assigned Category": "label 0"}
{"Molecule": "C[C@H](O)CCC(=O)c1ccoc1", "Assigned Category": "label 0"}
{"Molecule": "O=[N+]([O-])c1c(Cl)cc(Cl)c([N+](=O)[O-])c1Cl", "Assigned Category": "label 0"}
{"Molecule": "Cc1cc[c-]cc1.Fc1c[c-]c(-c2ccccn2)c(F)c1.[Pt+2].c1ccc([PH+](c2ccccc2)c2ccccn2)cc1", "Assigned Category": "label 0"}
{"Molecule": "C[C@]12CCC3[C@@H](C[C@@H]4SC(Nc5ccccc5)=N[C@@]45CC(=O)CC[C@]35C)[C@@H]1CCC2=O (stereo partly specified)", "Assigned Category": "label 1"}
{"Molecule": "CC[C@H](C)[C@H](NC(=O)C12CC(NC)(C1)C2)C(=O)N(C)[C@H](C[C@@H](OC(C)=O)c1nc(C(=O)N[C@@H](Cc2ccccc2)C[C@H](C)C(=O)OC)cs1)C(C)C", "Assigned Category": "label 1"}
{"Molecule": "O=Cc1cn(Cc2ccccc2)c2ccccc12", "Assigned Category": "label 0"}
{"Molecule": "Cc1cc(N)ccc1N", "Assigned Category": "label 0"}
{"Molecule": "CC12CCC3C(CCC4CC(O)CCC43C)C1CCC2=O (stereo unspecified)", "Assigned Category": "label 0"}
{"Molecule": "N#CCC(=O)c1ccccc1", "Assigned Category": "label 0"}

###

# Tested on: UACC-62 melanoma
# Method: NCI-60 one-dose screen, 48 h (100 = growth as untreated, 0 = no growth, -100 = all killed)
# Condition Notes: 10 µM unless noted
About 83,000 compounds went through this panel and 20% of them were active in at least one assay; those are over-represented in the sample as a whole.
Threshold rule: growth greater than or equal to 90% is met; below that, not met.

{"Compound": "CC[C@H](C)[C@H](NC(=O)CN(C)C)C(=O)N(C)[C@H](C[C@@H](OC(C)=O)c1nc(C(=O)NC23C4C5C2C2C3C4C52C(=O)OC)cs1)C(C)C (stereo not given in full)", "Assigned Category": "not met"}
{"Compound": "C/C(=C\\c1ccn(-c2ccc(N)cc2F)n1)[C@@H]1C[C@@H]2O[C@]2(C)CCC[C@H](C)[C@H](O)[C@@H](C)C(=O)C(C)(C)[C@@H](O)CC(=O)O1", "Assigned Category": "not met"}
{"Compound": "Cc1nc2ccccc2c(=O)n1-c1ccccc1F", "Assigned Category": "met"}
{"Compound": "CCCCS(=O)(=O)Cl", "Assigned Category": "met"}
{"Compound": "CC1=C2[C@H]3OC(=O)[C@@H](C)[C@@H]3CC[C@@]2(C)C=CC1=O", "Assigned Category": "met"}
{"Compound": "CN1CCN(c2ccc(Cl)cc2)CC1", "Assigned Category": "not met"}
{"Compound": "CNC(=O)O/N=C(\\SC)C(=O)N(C)C", "Assigned Category": "met"}
{"Compound": "CCOP(=O)(NC)OCC", "Assigned Category": "met"}
{"Compound": "CO/N=C1\\CC[C@]2(C)[C@H]3CC[C@]4(C)C(=O)CC[C@H]4[C@@H]3C[C@@H]3SC(N)=N[C@@]32C1", "Assigned Category": "not met"}
{"Compound": "O=[N+]([O-])c1cc(Cl)c(Cl)c([N+](=O)[O-])c1Cl", "Assigned Category": "not met"}

###

# System: MCF7 breast
# Method: NCI-60 one-dose screen, 48 h (100 = growth as untreated, 0 = no growth, -100 = all killed)
# Condition Notes: 10 µM unless noted
# Experimental: Growth inhibition of the MCF7 human tumor cell line is measured as a screen for anti-cancer activity. Cells are grown in 96 well plates and exposed to the test compound for 48 hours. Compounds are tested at a single concentration, which is 10^-5 M for most compounds. The reported endpoint is percent growth (GI% or GIPRCNT), where numbers from 0 - 100% represent growth inhibition, and numbers from -100% - 0 represent cell death. For example, a value of 40 represents 60% growth inhibition. […]
Compounds without any hit were thinned out: in the full panel of roughly 83,000, 20% have a hit.
Below, each entry is listed alongside its reported growth.

{"Compound": "O=C(O)c1cc([N+](=O)[O-])cc([N+](=O)[O-])c1", "Subject Of Test": "MCF7 breast", "growth [%]": 93.8}
{"Compound": "CC1(C)C=Cc2c(ccc3c2[N+]([O-])=C2C3=C[C@@]34NC(=O)[C@]5(CCCN5C3=O)C[C@@H]4C2(C)C)O1", "Subject Of Test": "MCF7 breast", "growth [%]": 17.9}
{"Compound": "O=Cc1cn(Cc2ccccc2)c2ccccc12", "Subject Of Test": "MCF7 breast", "growth [%]": 84.8}
{"Compound": "O=S1(=O)OCCO1", "Subject Of Test": "MCF7 breast", "growth [%]": 98.8}
{"Compound": "CC[C@H](C)[C@H](NC(=O)c1cnccn1)C(=O)N(C)[C@H](C[C@@H](OC(C)=O)c1nc(C(=O)N[C@@H](Cc2ccccc2)C[C@H](C)C(=O)OC)cs1)C(C)C", "Subject Of Test": "MCF7 breast", "growth [%]": 15.5}
{"Compound": "CC[C@H](C)[C@H](NC(=O)CN(C)C)C(=O)N(C)[C@H](C[C@@H](OC(C)=O)c1nc(C(=O)NC23C4C5C2C2C3C4C52C(=O)OC)cs1)C(C)C (stereo not given in full)", "Subject Of Test": "MCF7 breast", "growth [%]": 21.6}
{"Compound": "CCCCOCCOP(=O)(OCCOCCCC)OCCOCCCC", "Subject Of Test": "MCF7 breast", "growth [%]": 105}
{"Compound": "CC(C)COC(=O)Cc1ccccc1", "Subject Of Test": "MCF7 breast", "growth [%]": 106}
{"Compound": "Cc1ccc(P(=O)(O)O)cc1", "Subject Of Test": "MCF7 breast", "growth [%]": 98.6}
{"Compound": "c1ccc2c(c1)sc1ccccc12", "Subject Of Test": "MCF7 breast", "growth [%]": 102}
